PROTOCOL DESCRIPTION: In vitro stability of MRS2365 in mouse whole blood
Assay type: in vitro ADME
CONDITIONS USED: male, CD-1, EDTA-treated mouse whole blood

| SMILES ENTRY | half-life at 1 μM / min |
| --- | --- |
| CSc1nc(N)c2ncn([C@H]3[C@H](O)[C@H](O)[C@]4(COP(=O)(O)OP(=O)(O)O)C[C@H]34)c2n1 | 47 |

* * *

PROTOCOL DESCRIPTION: Pharmacokinetics of MRS4322 following intravenous administration to neonatal pigs
Format: in vivo
CONDITIONS USED: female, pig, brain cortex, iv, 0.2 mg/kg, Brain Cortex, MRS4322 0.2 mg/kg IV, 6 h, mean, read-out: Brain Concentration Mean

| SMILES ENTRY | concentration at 6 h (ng/mL) |
| --- | --- |
| CSc1nc(N)c2ncn([C@H]3[C@H](O)[C@H](O)[C@]4(CO)C[C@H]34)c2n1 | 5.1 |
